From: PubChem BioAssay AID1159580

experiment: chemical genetic growth profiling, strain panel (AID 1159580);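 further: tested at 20 µM; growth read once vehicle control cultures reached saturation at 30 °C; 1 = growth at the plate median or of vehicle wells; lower values mean less growth of the strain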; details: S. cerevisiae deletion strains, growth OD, locus YHR013C, strain ard1, active compounds read low
About 2,000 (36%) of roughly 5,500 compounds were called active. Not shown: some 18% with an inconclusive outcome. This is one part of the list.
Items are presented alongside their recorded normalized growth.
In your answer, state the number alone without any accompanying words.

Ask: Fill in normalized growth for record `NC(=O)CN1CCCC1=O`
Reply: 0.963

Ask: Fill in normalized growth for record `O=c1c(O)c(-c2ccc(O)c(O)c2)oc2c(O)c(O)cc(O)c12`
Reply: 0.931

Continuing:
Ask: Fill in normalized growth for record COC(=O)[C@]1(C)CCC[C@]2(C)c3ccc(C(C)C)cc3C(=O)CC12 (some centres undefined)
Reply: 0.959

Ask: Fill in normalized growth for record `C[C@@H]([C@H](O)c1ccccc1)N(C)C`
Reply: 1.05

---

Items are presented alongside their recorded normalized growth.
assay: chemical genetic growth profiling, strain panel (AID 1159580);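 further: tested at 20 µM; growth read once vehicle control cultures reached saturation at 30 °C; 1 = growth at the plate median or of vehicle wells; lower values mean less growth of the strain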; details: S. cerevisiae deletion strains, growth OD, locus YGL086W, strain mad1, active compounds read low
Hit rate of the full screen: of about 5,500 compounds, about 2,000 (36%) were called active. Not shown: some 18% with an inconclusive outcome. Some of the results follow.
In your answer, state the number alone without any accompanying words.

Ask: Fill in normalized growth for record `CC(C)(O)[C@@H]1Cc2cc3ccc(=O)oc3cc2O1`
Reply: 1.03

Ask: Fill in normalized growth for record CC1(C)C2CC(=O)[C@]3(C)C(CC[C@@]4(C)[C@H](c5ccoc5)OC(=O)[C@H]5O[C@]543)[C@@]2(C)C(=O)C[C@H]1O (stereo partly drawn)
Reply: 1.01

Ask: Fill in normalized growth for record `CN1C(C)(C)CCCC1(C)C`
Reply: 0.996

---

test: chemical genetic growth profiling, strain panel (AID 1159580);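 further: tested at 20 µM; growth read once vehicle control cultures reached saturation at 30 °C; 1 = growth at the plate median or of vehicle wells; lower values mean less growth of the strain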; details: S. cerevisiae deletion strains, growth OD, locus YFR028C, strain CDC14
The campaign covered roughly 5,500 compounds. About 2,000 (36%) were called active. Inconclusive results (about 18%) are left out. Rule as the data show it: active = normalized growth mostly below about 0.91 (no sharp cut-off); inconclusive = no clear call, values can overlap the other calls; inactive = mostly above about 0.92. The list shows a part of the results.
// one of Y for active, N for inactive, no free text

Ask: Record request — test call for `O=C1/C(=C/c2ccccn2)CCc2ccccc21`
Reply: N

Ask: Record request — test call for `Oc1c(Cl)cc(Cl)cc1/C=N\NC(=S)Nc1cc(C(F)(F)F)cc(C(F)(F)F)c1`
Reply: Y

Ask: Record request — test call for `OC(COc1ccc(F)cc1)(c1ccccc1)c1ccccc1`
Reply: N

Ask: Record request — test call for `COc1cc(Br)cc(C=Nc2ccc(Sc3ccccc3)nc2Sc2ccccc2)c1O`
Reply: N

Let us examine a further case.
Ask: Record request — test call for CC(NC(=S)N/N=C\c1ccccc1O)c1ccccc1 (stereo not given)
Reply: N

---

Items are presented alongside their recorded normalized growth.
experiment: chemical genetic growth profiling, strain panel (AID 1159580);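 further: tested at 20 µM; growth read once vehicle control cultures reached saturation at 30 °C; 1 = growth at the plate median or of vehicle wells; lower values mean less growth of the strain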; details: S. cerevisiae deletion strains, growth OD, locus YOR231W, strain MKK1, active compounds read low
Out of some 5,500 compounds screened, about 2,000 (36%) were called active. Not shown: some 18% with an inconclusive outcome. The list shows a part of the results.
In your answer, state the number alone without any accompanying words.

Ask: Fill in normalized growth for record Oc1cc2c(cc1O)C1c3ccc(O)c(O)c3OCC1(O)C2 (stereo unspecified)
Reply: 1.01

Ask: Fill in normalized growth for record CC(=O)[C@@]1(O)CCC2C3C[C@H](C)C4=CC(=O)C=CC4(C)[C@@]3(F)[C@@H](O)C[C@@]21C (stereo partly specified)
Reply: 1

Ask: Fill in normalized growth for record `CC(=O)OCC1=C(C(=O)O)N2C(=O)[C@@H](NC(=O)Cc3cccs3)[C@H]2SC1`
Reply: 0.972

Ask: Fill in normalized growth for record `OC[C@H]1O[C@H](O[C@]2(CCl)O[C@H](CCl)[C@@H](O)[C@@H]2O)[C@H](O)[C@@H](O)[C@H]1Cl`
Reply: 0.972

Ask: Fill in normalized growth for record `O=S(=O)(CS(=O)(=O)Oc1ccc(Cl)c(Cl)c1)Oc1ccc(Cl)c(Cl)c1`
Reply: 1.07

Ask: Fill in normalized growth for record COP(=O)(OC)C(O)C(Cl)(Cl)Cl (stereo unspecified)
Reply: 1.03

Continuing:
Ask: Fill in normalized growth for record `COc1ccccc1NC(=S)N/N=C\c1ccccc1O`
Reply: 0.967

Ask: Fill in normalized growth for record Oc1ccc2c(c1)OCC1(O)Cc3cc(O)c(O)cc3C21 (stereo unspecified)
Reply: 1.01

Ask: Fill in normalized growth for record Cc1nnc2n1N=C(c1ccc(CC(C)C)cc1)C(C)S2 (stereo unspecified)
Reply: 1.04

Ask: Fill in normalized growth for record CCCC(C)(COC(N)=O)COC(=O)NC(C)C (stereo unspecified)
Reply: 0.981

Ask: Fill in normalized growth for record `O=[N+]([O-])c1cc(Cl)cc([N+](=O)[O-])c1Nc1ccccc1`
Reply: 0.962

Ask: Fill in normalized growth for record `O=C(Nc1ccccc1)Nc1ccc(Cl)cc1[N+](=O)[O-]`
Reply: 0.835

Ask: Fill in normalized growth for record `O=c1cc(-c2ccc(O)cc2)oc2cc(O[C@@H]3O[C@H](CO)[C@@H](O)[C@H](O)[C@H]3O)cc(O)c12`
Reply: 1.05

Ask: Fill in normalized growth for record C[C@]12CCC3c4ccc(O)cc4CCC3C1C[C@@H](O)[C@@H]2O (stereo partly specified)
Reply: 0.972

Ask: Fill in normalized growth for record CCCCCCC(C)OC(=O)COc1ccc(Cl)cc1Cl (stereo unspecified)
Reply: 1.04

Ask: Fill in normalized growth for record CC(NC(=S)N/N=C\c1ccccc1O)c1ccccc1 (stereo unspecified)
Reply: 0.981
